- studySystem: T1, TIM-3 protein on human peripheral blood mononuclear lymphocytes (PBMC) (human, UniProt Q8TDQ0 22-301)
- T1 sequence: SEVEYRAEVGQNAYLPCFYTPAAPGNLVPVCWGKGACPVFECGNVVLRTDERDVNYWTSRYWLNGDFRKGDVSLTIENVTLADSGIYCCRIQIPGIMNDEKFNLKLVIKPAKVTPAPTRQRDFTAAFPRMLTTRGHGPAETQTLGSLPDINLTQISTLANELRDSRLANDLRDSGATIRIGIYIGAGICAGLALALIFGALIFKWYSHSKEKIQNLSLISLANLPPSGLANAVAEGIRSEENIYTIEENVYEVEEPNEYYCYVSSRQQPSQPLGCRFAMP
- protocolSummary: cell-based or functional assay
List of IFN-γ production (donor X); antibody 10 µg/ml, N = 1 values.
Only the number, expressed in pg/mL, is required.

The examples below pair each entry with its known result.
7A4F10 fully human TIM-3 antibody (human IgG4, kappa) (antibody, V domains shown) VH: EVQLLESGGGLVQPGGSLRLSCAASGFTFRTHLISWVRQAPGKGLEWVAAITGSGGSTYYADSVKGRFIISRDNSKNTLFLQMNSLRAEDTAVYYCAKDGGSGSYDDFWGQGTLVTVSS VL: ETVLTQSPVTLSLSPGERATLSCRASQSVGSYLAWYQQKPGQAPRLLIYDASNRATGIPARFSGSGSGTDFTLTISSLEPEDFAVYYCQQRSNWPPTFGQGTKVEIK | 2900
18D2H2 fully human TIM-3 antibody (human IgG4, kappa) (antibody, V domains shown) VH: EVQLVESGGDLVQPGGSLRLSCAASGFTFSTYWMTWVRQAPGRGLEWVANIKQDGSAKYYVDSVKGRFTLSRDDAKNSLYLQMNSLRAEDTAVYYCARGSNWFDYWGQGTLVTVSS VL: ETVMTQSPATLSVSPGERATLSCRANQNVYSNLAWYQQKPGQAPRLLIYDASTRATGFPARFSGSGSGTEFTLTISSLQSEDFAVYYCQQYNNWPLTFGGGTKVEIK | 2810

From here, focus on the item given below.
# input binder: 57F4E5 fully human TIM-3 antibody (human IgG4, kappa) (antibody, V domains shown) VH: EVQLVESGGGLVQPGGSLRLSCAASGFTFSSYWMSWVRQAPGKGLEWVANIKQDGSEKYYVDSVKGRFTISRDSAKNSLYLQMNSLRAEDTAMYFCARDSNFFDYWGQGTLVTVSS VL: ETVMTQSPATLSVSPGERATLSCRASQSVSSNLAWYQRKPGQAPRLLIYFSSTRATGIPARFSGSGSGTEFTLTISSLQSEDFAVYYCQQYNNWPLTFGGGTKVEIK ; wanted: its IFN-γ production (donor X); antibody 10 µg/ml, N = 1
3080
